- Tested on: A. baumannii CQ4322
- test-method-notes: Broth microdilution MIC/MBC, glycosides with or without polymyxins
- Assay type: cell-based, Acinetobacter baumannii
- particulars: antibiotic alone; strain G
Give MIC (antibiotic susceptibility profile) for every item shown.

* CNC(C)C1CCC(N)C(OC2C(N)CC(N)C(OC3OCC(C)(O)C(NC)C3O)C2O)O1 (stereo not shown) [Gentamicin, reference compound] | 32 to 64 µg/mL

Report MIC (antibiotic susceptibility profile) for every entry below.
1. NCC[C@H](O)C(=O)N[C@@H]1C[C@H](N)[C@@H](O[C@H]2O[C@H](CN)[C@@H](O)[C@H](O)[C@H]2O)[C@H](O)[C@H]1O[C@H]1O[C@H](CO)[C@@H](O)[C@H](N)[C@H]1O [Amikacin, reference compound]
2. C[C@@H](O)[C@H]1C(=O)N2C(C(=O)O)=C(SCCN=CN)C[C@H]12 [Imipenem, reference compound]
3. NC[C@H]1O[C@H](O[C@H]2[C@H](O)[C@@H](O[C@H]3O[C@H](CO)[C@@H](O)[C@H](N)[C@H]3O)[C@H](N)C[C@@H]2N)[C@H](N)C[C@@H]1O [Tobramycin, reference compound]

stdout:
1: ≥ 128 µg/mL; 2: 32 to 64 µg/mL; 3: 32 µg/mL
